Entry source: patent US9512107B2

test system: U87MG pLVX-IDH2 R140Q-neo cells; assay: U87MG pLVX-IDH2 R140Q-neo cell based assay, 2-HG in media by LC-MS at 48 hours; conditions: Homo sapiens, U-87 MG
Examples of compounds with documented IC50 follow.

Entry Fc1ccc(Nc2nc(NC3CCC3)nc(-c3cccc(Cl)n3)n2)cn1 [Compound 325] ; IC50 = < 100 nM

Entry Cc1cccc(-c2nc(Nc3cccc(S(C)(=O)=O)c3)nc(NC(C)C)n2)n1 [Compound 359] ; IC50 = 100 to 1000 nM

###

Target: IDH2 R140Q (Homo sapiens, UniProt P48735, R140Q)
Sequence (P48735 40-452 R140Q): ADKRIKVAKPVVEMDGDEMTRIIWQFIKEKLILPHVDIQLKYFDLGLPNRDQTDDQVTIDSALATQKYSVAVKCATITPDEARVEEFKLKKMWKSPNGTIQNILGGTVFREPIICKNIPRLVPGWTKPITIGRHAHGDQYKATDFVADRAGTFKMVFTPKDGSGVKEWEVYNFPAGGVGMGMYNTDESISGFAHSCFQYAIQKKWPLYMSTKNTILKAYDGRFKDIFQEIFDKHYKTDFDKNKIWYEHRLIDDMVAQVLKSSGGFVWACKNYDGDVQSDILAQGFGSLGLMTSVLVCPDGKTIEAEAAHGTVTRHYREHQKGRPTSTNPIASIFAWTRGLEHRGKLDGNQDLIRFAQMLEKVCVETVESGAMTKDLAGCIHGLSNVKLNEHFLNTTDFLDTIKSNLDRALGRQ
Assay: IDH2 R140Q enzymatic assay (cofactor depletion, similar format)
Assay type: biochemical
Details: read-out: Enz R140Q
endpoint: IC50

Would you please look over these solved cases?
structure-notation: CC(C)(CO)CNc1nc(Nc2ccnc(C(F)(F)F)c2)nc(-c2cccc(C(F)(F)F)n2)n1
IC50: 0.1 to 1 µM
//
structure-notation: COc1cccc(-c2nc(Nc3ccnc(C(F)(F)F)c3)nc(NC3COC3)n2)c1F
IC50: 0.1 to 1 µM
//
structure-notation: CC(C)(O)CNc1nc(Nc2cncc(C(F)(F)F)c2)nc(-c2cccc(C(F)(F)F)n2)n1
IC50: 0.1 to 1 µM

Entry CC(F)(F)c1cc(Nc2nc(NCC3CC3)nc(-c3cccc(C(F)(F)F)n3)n2)ccn1 ; IC50 = 0.1 to 1 µM

Entry Cc1cc(-c2nc(Nc3cccc(F)c3)nc(NC(C)C)n2)no1 ; IC50 = < 0.1 µM

Entry CC(C)Nc1nc(Nc2ccnc(C(F)(F)F)c2)nc(-c2cccc(Cl)n2)n1 ; IC50 = 0.1 to 1 µM

Entry CC(C)Nc1nc(Nc2ccncc2)nc(-c2cccc(N)c2)n1 ; IC50 = 0.1 to 1 µM

Entry CC(C)Nc1nc(Nc2cc(F)cc(F)c2)nc(-c2cccc(N)n2)n1 ; IC50 = < 0.1 µM
